test system: UACC-62 melanoma; assay: NCI tumour cell line growth inhibition, 48 h
OBSERVED_PROPERTY: TGI (µM)
Response body: numeric value in µM, unit text excluded.

Exercise: Which TGI value belongs to CC1Cc2cc(O)c(O)cc2-c2cc(O)c(O)cc2CC1C (stereo not given) ?
Solution: 19.3

Exercise: Query (compound): Cc1cc(=O)[nH]c(NNC(C#N)c2c(O)ccc3ccccc23)n1 (stereo not given) ; field requested: TGI
Solution: 10.1

Exercise: Would you mind telling me what TGI value was observed for CSc1nc(NC2OC(COC(C)=O)C(OC(C)=O)C(OC(C)=O)C2OC(C)=O)c(-c2csc(N)n2)c(=O)n1C (stereo not given) ?
Solution: 89.4

New cases:
Exercise: Consider the compound shown here: "CCCCNC(=O)c1cc(NCc2cc(O)ccc2O)ccc1O" What is its recorded TGI?
Solution: 27.1
